experiment: NCI Yeast Anticancer Drug Screen. Data for the sgs1 mgt1 strain (AID 161); conditions: S. cerevisiae sgs1 mgt1 strain, at 50.0 µM, active compounds read high
Compounds without any hit were thinned out: in the full panel of roughly 79,000, 15% have a hit.
Everything with growth inhibition lower than -20% is condition not met; everything else, including exactly -20%, is condition met.

# compound, assigned_label
measured = [
    ("Cc1nc(C)c(N2CCN(S(N)(=O)=O)CC2)c(=O)[nH]1", "condition not met"),
]

-- ask Hello, I need to know if O=C(O)c1c[nH]c2cc(O)ccc2c1=O has measured growth inhibition not below -20%. Thanks!
-- reply condition met

-- ask Hello, I need to know if Cc1ncn(-c2ccccc2)c(=O)c1N=Cc1ccccc1 has measured growth inhibition not below -20%. Thanks!
-- reply condition not met

-- ask Hello, I need to know if CCCCCCCCCCCCCC(=O)OCC(CCS(=O)(=O)O[C@H]1CC[C@@]2(C)C(=CC[C@@H]3C2CC[C@]2(C)C(=O)CCC32)C1)OC(=O)CCCCCCCCCCCCC (some centres undefined) has measured growth inhibition not below -20%. Thanks!
-- reply condition met

-- ask Hello, I need to know if N#CC(=Nc1ccccc1N(C(=O)c1ccccc1)C(=O)c1ccccc1)c1ccccc1 has measured growth inhibition not below -20%. Thanks!
-- reply condition not met

-- ask Hello, I need to know if NC(CCCCN=Cc1nc(-c2ccccc2)oc1O)C(=O)O (centres undefined) has measured growth inhibition not below -20%. Thanks!
-- reply condition not met

-- ask Hello, I need to know if O=C1NC(=O)C(F)(F)C1(F)F has measured growth inhibition not below -20%. Thanks!
-- reply condition met

All values here come from PubChem BioAssay (NCI).
